molecular target: human melanocortin-4 receptor (human, UniProt P32245 1-332); assay: cell-based or functional assay
Sequence (P32245 whole entry): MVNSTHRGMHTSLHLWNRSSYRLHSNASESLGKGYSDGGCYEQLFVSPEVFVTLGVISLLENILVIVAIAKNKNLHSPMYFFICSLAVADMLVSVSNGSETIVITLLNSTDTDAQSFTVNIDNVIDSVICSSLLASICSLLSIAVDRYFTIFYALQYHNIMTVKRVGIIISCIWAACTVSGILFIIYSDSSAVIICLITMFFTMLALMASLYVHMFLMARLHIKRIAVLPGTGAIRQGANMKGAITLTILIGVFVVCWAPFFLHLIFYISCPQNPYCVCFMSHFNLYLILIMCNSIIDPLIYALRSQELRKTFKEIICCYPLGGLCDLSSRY
Positions of bridges follow the written chain, without caps; N, C: chain ends. Non-standard residues stand in square brackets, D forms with d. dPhe(2-CF3) = N[C@H](Cc1ccccc1C(F)(F)F)C(=O)O; dPhe(4-CN) = N#Cc1ccc(C[C@@H](N)C(=O)O)cc1; dPhe(2-Me) = Cc1ccccc1C[C@@H](N)C(=O)O; Orn = NCCC[C@H](N)C(=O)O
Catalogue of binders with associated Intrinsic Activity, cAMP, 10 ng/mL Doxycycline
Unit % implied. Number only.

XDQXRWK (N-terminal Ac; D-Arg 1; D-Phe(4-CN) 4; lactam Asp 2-Lys 7; C-terminal NH2, also called No. 81) [Ac-D-Arg-cyclo(Asp-Gln-D-Phe(4-CN)-Arg-Trp-Lys)-NH2] | 85
Ac-REV[dPhe(4-CN)]RW[Orn]-NH2 (lactam 2-7, also called No. 42) [Ac-Arg-cyclo(Glu-Val-D-Phe(4-CN)-Arg-Trp-Orn)-NH2] | 84

Exam item: Give Intrinsic Activity, cAMP, 10 ng/mL Doxycycline for Ac-R[Orn]Q[dPhe(2-Me)]RWE-NH2 (lactam 2-7) [Ac-Arg-cyclo(Orn-Gln-D-Phe(2-Me)-Arg-Trp-Glu)-NH2]
Marked response: 104

Exam item: Give Intrinsic Activity, cAMP, 10 ng/mL Doxycycline for Ac-R[Orn]Q[dPhe(2-CF3)]RWE-NH2 (lactam 2-7, also called No. 115) [Ac-Arg-cyclo(Orn-Gln-D-Phe(2-CF3)-Arg-Trp-Glu)-NH2]
Marked response: 108

Where these numbers come from: patent US20100311648A1
